Data origin, for the record: patent US11702414B2

Provide the reported IC50 of each item.
- Target Of Assay: IRAK4 enzyme (Homo sapiens (Human))
- Sequence (Q9NWZ3 whole entry): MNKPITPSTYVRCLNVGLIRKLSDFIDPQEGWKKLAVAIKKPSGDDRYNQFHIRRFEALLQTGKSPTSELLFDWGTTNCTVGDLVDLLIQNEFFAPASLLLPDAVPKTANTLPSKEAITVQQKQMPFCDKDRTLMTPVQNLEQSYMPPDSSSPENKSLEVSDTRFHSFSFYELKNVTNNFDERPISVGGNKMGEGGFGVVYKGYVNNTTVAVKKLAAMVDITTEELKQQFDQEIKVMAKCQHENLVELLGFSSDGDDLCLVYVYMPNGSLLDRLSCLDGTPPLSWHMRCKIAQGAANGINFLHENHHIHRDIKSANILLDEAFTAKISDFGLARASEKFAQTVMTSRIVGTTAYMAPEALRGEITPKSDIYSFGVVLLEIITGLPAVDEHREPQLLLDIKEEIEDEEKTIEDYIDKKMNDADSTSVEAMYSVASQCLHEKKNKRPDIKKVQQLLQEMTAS
- Measurement Protocol: IRAK4 Biochemical Assay (TR-FRET, STK1 KinEASE)
The reply should be a number in nM, with the unit left off.

Q: Look at this compound and give its reported IC50. CC(C)Nc1cc(-c2ccc3cc(C#N)cnn23)ncc1-c1nnc(C2CCC(C#N)CC2)s1 (stereo not drawn)
A: 1.99

Q: Next up: `CC(C)Nc1cc(-c2ccc3cc(C#N)cnn23)ncc1-c1nnc(N2CCC(O)(CF)CC2)s1`
A: 1.02

Q: Next up: `CC(=O)N[C@H]1CC[C@@H](c2nnc(-c3cnc(-c4ccc5cc(C#N)cnn45)cc3NC(C)C)s2)OC1`
A: 0.47

Q: Next up: `CC(C)Nc1cc(-c2ccc3cc(C#N)cnn23)ncc1-c1nnc(C(C)(C)O)s1`
A: 1.16

Q: Next up: `CC(C)Nc1cc(-c2ccc3cc(C#N)cnn23)ncc1-c1nnc(-n2cccn2)s1`
A: 8.07

Q: Next up: CC(C)Nc1cc(-c2ccc3cc(C#N)cnn23)ncc1-c1nnc(N2CC3CCC(C2)C3(O)C(F)(F)F)s1 (stereo not drawn)
A: 6.38

Q: Next up: `CC(C)Nc1cc(-c2ccc3cc(C#N)cnn23)ncc1-c1nnc(N2CCC(C)(O)CC2)s1`
A: 0.86

Q: Next up: `CC(C)Nc1cc(-c2ccc3cc(C#N)cnn23)ncc1-c1nnc(C2CCN(C3COC3)CC2)s1`
A: 0.61

Q: Next up: `CC(C)Nc1cc(-c2ccc3cc(C#N)cnn23)ncc1-c1nnc(N2CC(N3CCC(F)(F)C3)C2)s1`
A: 1.02

Q: Next up: `CC(C)Nc1cc(-c2ccc3cc(C#N)cnn23)ncc1-c1nnc(N2CCC(O)(C(F)(F)F)CC2)s1`
A: 2.99

Q: Next up: `CC1(O)CCN(c2nnc(-c3cnc(-c4ccc5cc(C#N)cnn45)cc3NC3(C)COC3)s2)CC1`
A: 0.36

Q: Next up: `CC(C)Nc1cc(-c2ccc3cc(C#N)cnn23)ncc1-c1nnc(N2CC[C@@](C)(O)[C@@H](F)C2)s1`
A: 0.95

Q: Next up: `CC(=O)N1CCC2(CC1)CN(c1nnc(-c3cnc(-c4ccc5cc(C#N)cnn45)cc3NC3COC3)s1)C2`
A: 0.24

Q: Next up: `CC(=O)N[C@H]1CCN(c2nnc(-c3cnc(-c4ccc5cc(C#N)cnn45)cc3NC(C)C)s2)C1`
A: 1.21

Q: Next up: `CC(=O)NC1CCC2(CC1)CN(c1nnc(-c3cnc(-c4ccc5cc(C#N)cnn45)cc3N[C@H](C)C#N)s1)C2`
A: 1.06
